Molecular target: T1, human β-factor XIIa (human), P00748
T1 chain 1: NGPLSCGQR
T1 chain 2: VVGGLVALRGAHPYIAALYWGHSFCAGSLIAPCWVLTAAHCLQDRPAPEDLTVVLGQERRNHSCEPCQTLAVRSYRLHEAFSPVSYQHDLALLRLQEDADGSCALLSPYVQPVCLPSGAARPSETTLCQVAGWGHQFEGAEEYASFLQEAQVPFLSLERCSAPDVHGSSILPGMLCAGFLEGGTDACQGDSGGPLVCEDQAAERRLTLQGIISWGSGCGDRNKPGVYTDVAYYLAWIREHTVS
Experiment: competitive inhibition assay with peptide substrate
measuredEndpoint: pKi
// field semantics: pKi = negative decimal log of concentration (mol/L)

Memo: RVCPRILKKCRRDSDCPGACICRGNGYCG (modifications not checked) [acyclic MCoTI-II variant M] , reported pKi: 8.48
